Subject Of Test: T1, IL-18 receptor (IL-18Rαβ) on cells (UniProt Q13478 19-541; O95256 20-599, limits assumed)
T1 sequence (looked up) 1: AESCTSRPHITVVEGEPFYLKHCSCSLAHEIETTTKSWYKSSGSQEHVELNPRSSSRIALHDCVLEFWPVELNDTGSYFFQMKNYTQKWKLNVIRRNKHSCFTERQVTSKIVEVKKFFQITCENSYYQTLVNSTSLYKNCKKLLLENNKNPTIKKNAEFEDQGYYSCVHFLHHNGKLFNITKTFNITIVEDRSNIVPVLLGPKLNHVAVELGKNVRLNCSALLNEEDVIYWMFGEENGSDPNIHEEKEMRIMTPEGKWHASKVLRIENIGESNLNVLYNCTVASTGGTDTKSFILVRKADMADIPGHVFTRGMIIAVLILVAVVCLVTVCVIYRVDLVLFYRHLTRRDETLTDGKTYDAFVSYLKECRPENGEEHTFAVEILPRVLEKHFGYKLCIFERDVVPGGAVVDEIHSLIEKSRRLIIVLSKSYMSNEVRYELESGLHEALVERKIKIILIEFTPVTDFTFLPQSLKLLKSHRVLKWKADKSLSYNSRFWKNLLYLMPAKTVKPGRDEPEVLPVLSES
T1 sequence (looked up) 2: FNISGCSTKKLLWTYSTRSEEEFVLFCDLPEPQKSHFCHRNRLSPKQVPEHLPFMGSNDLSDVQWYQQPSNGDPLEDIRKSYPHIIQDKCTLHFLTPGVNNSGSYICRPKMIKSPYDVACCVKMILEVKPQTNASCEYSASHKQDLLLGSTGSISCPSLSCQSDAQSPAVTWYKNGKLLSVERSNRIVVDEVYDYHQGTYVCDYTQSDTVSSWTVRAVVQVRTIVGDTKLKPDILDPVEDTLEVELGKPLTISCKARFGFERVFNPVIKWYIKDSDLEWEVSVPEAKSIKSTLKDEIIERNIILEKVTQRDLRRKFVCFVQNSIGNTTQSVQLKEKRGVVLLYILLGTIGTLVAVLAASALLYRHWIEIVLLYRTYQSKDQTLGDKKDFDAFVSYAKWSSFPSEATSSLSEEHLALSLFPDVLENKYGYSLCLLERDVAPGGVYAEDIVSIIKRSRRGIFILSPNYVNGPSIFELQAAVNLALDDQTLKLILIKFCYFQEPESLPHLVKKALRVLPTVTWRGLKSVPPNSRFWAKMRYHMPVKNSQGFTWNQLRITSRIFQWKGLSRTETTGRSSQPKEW
Measurement Description: cell-based or functional assay
HEK-Blue IL-18R reporter EC50 strictly under 0.8 pM means True; at 0.8 pM or over means False.

| Binder | Class |
| --- | --- |
| C168 (ligand) YFGKLESKLSIIRNLNDQVLFIDQGNRPLFEDMTDSDARDNAPRTIFIISMYKDSQPRGMAVTISVKCEKISTLSAENKIISFKEMNPPDNIKDTKSDIIFFQRKVPGHDNKMQFESSSYEGYFLAAEKERDLFKLILKKEDELGDRSIMFTVQNED | False |
| C149 (ligand) YFGKLESKLSIIRNLNDQVLFIDQGNRPLFADMTDSDARDNAPRTIFIISMYADSQPRGMAVTISVKCEKISTLSAENKIISFKEMNPPDNIKDTKSDIIFFQRSVPGHDNKMQFESSSYEGYFLAAEKERDLFKLILKKEDELGDRSIMFTVQNED | False |
| SEQ ID NO 54 (ligand) YFGKLKSKLSVIRNLNDQVLFIDQGNRPLFEDMTDSDSRDNAPRTIFIISMYADSQPRGMAVTISVKSECISTLSSENKIISFKEMNPPDNIKDTKSDIIFFQRSVPGHDNKMQFESSSYEGYFLASEKERDLFKLILKKEDELGDRSIMFTVQNED | False |
| C154 (ligand) YFGKLESKLSIIRNLNDQVLFIDQGNRPLFADMTDSAARDNAPRTIFIISMYADSQPRGMAVTISVKCEKISTLSAENKIISFKEMNPPDNIKDTKSDIIFFQRSVPGHDNKMQFESSSYEGYFLAAEKERDLFKLILKKEDELGDRSIMFTVQNED | False |
| SEQ ID NO 60 (ligand) YFGKLKSKLSVIRNLNDQVLFIDQGNRPLFEDMTDSDQRDNAPRTIFIISMYADSQPRGMAVTISVKCEKISTLSCENKIISFKEMNPPDNIKDTKSDIIFFQRSVPGHDNKMQFESSSYEGYFLACEKERDLFKLILKKEDELGDRSIMFTVQNED | True |
| C183 (ligand) YFGKLKSKLSIIRNLNDQVLFIDQGNRPLFEDMTDSDARDNAPRTIFIISGYADSQPRGMAVAISVKCEKISTLSAENKIISFKEMNPPDNIKDTKSDIIFFQRSVPGHDNKMQFESSSYEGYFLAAEKERDLFKLILKKEDELGDRSIMFTVQNED | True |
| SEQ ID NO 56 (ligand) YFGKLKSKLSVIRNLNDQVLFIDQGNRPLFEDMTDSDSRDNAPRTIFIISMYADSQPRGMAVTISVKCEKISTLSSENKIISFKEMNPPDNIKDTKSDIIFFQRSVPGHDNKMQFESSSYEGYFLASEKERDLFKLILKKEDELGDRSIMFTVQNED | False |
| C176 (ligand) YFGKLKSKLSIIRNLNDQVLFIDQGNRPLFEDMTDSDARDNAPRTIFIMSMYADSQPRGMAVAISVKCEKISTLSAENKIISFKEMNPPDNIKDTKSDIIFFQRSVPGHDNKMQFESSSYEGYFLAAEKERDLFKLILKKEDELGDRSIMFTVQNED | True |
| C178 (ligand) YFGKLKSKLSIIRNLNDQVLFIDQGNRPLFEDMTDSDARDNAPRTIFIISMYADSQPRGMAVAISVKCEKISTLSAENKIISFKEMNPPDNIKDTKSDIIFFRRSVPGHDNKMQFESSSYEGYFLAAEKERDLFKLILKKEDELGDRSIMFTVQNED | True |
| SEQ ID NO 34 (ligand) YFGKLKSKLSVIRNLNDQVLFIDQGNRPLFEDMTDSDCRDNAPRTIFIISMYADAQPRGMAVTISVKCEKISTLSCENKIISFKEMNPPDNIKDTKSDIIFFQRSVPGHDNKMQFESSSYEGYFLACEKERDLFKLILKKEDELGDRSIMFTVQNED | False |
| C148 (ligand) YAGKLESKLSIIRNLNDQVLFIDQGNRPLFEDMTDSDARDNAPRTIFIISMYADSQPRGMAVTISVKCEKISTLSAENKIISFKEMNPPDNIKDTKSDIIFFQRSVPGHDNKMQFESSSYEGYFLAAEKERDLFKLILKKEDELGDRSIMFTVQNED | False |
| C156 (ligand) YFGKLESKLSIIRNLNDQVLFIDQGNRPLFEDMTDSDARDAAPRTIFIISMYADSQPRGMAVTISVKCEKISTLSAENKIISFKEMNPPDNIKDTKSDIIFFQRSVPGHDNKMQFESSSYEGYFLAAEKERDLFKLILKKEDELGDRSIMFTVQNED | False |
| SEQ ID NO 59 (ligand) YFGKLKSKLSVIRNLNDQVLFIDQGNRPLFEDMTDSDARDNAPRTIFIISMYADSQPRGMAVTISVKCEKISTLSCENKIISFKEMNPPDNIKDTKSDIIFFQRSVPGHDNKMQFESSSYEGYFLACEKERDLFKLILKKEDELGDRSIMFTVQNED | True |
| C166 (ligand) YFGKLESKLSIIRNLNDQVLFIDQGNRPLFEDMTDSDARDNAPRTIFIISMYKDTQPRGMAVTISVKCEKISTLSAENKIISFKEMNPPDNIKDTKSDIIFFQRSVPGHDNKMQFESSSYEGYFLAAEKERDLFKLILKKEDELGDRSIMFTVQNED | False |
